B1: WEE1 (parent)
chain: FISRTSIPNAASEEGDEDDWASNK

Variants of: B1
Assay: protein stability index of a GFP-peptide fusion (GPS, HEK-293T) (PSI 1-6); higher = more stable;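 further: lentivirally expressed fusions sorted by FACS into six bins by GFP to DsRed ratio, PSI derived from sequencing read proportions per bin multiplied by bin number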
Conditions: c terminus: a fixed tail appended
# maps each entry to its protein stability index
Lab note: jot the number down without any unit.

Would you please look over these solved cases?
residue_change=A10T result=3.89
residue_change=S6C result=3.95

Query protein stability index for D16Q
4.02

Query protein stability index for D16E
3.94

Query protein stability index for A10L
3.93

Query protein stability index for N9P
3.91

The origin of these recorded values is the supplement of paper PMC10567573.
